Experiment: physchem
Settings: Experimental pKa, PROTACs; mean ± SD of 3 experiments

{"item-smiles": "COc1ccc2c(c1)c(CC(=O)NCCCN1CCN(CCCNC(=O)CCC(=O)N[C@H](C(=O)N3C[C@H](O)C[C@H]3C(=O)N[C@@H](C)c3ccc(-c4scnc4C)cc3)C(C)(C)C)CC1)c(C)n2C(=O)c1ccc(Cl)cc1", "pKa": 3.94}

###

Reported values of pKa for individual entries
Assay: physchem

{"item-smiles": "COC(=O)CCCCCCN1CCN(C(=O)Cc2c(C)n(C(=O)c3ccc(Cl)cc3)c3ccc(OC)cc23)CC1", "pKa": 7.41}
{"item-smiles": "COc1ccc2c(c1)c(CC(=O)N1CCN(CCCC(C)=O)CC1)c(C)n2C(=O)c1ccc(Cl)cc1", "pKa": 6.75}
{"item-smiles": "C#CCN1CCN(C(=O)C[C@@H]2N=C(c3ccc(Cl)cc3)c3c(sc(C)c3C)-n3c(C)nnc32)CC1", "pKa": 4.91}
{"item-smiles": "COc1ccc2c(c1)c(CC(=O)N1CCN(CCOCCO)CC1)c(C)n2C(=O)c1ccc(Cl)cc1", "pKa": 6.75}
{"item-smiles": "COc1ccc2c(c1)c(CC(=O)N1CCN(CCC(C)=O)CC1)c(C)n2C(=O)c1ccc(Cl)cc1", "pKa": 5.98}
{"item-smiles": "COC(=O)CCCCN1CCN(C(=O)Cc2c(C)n(C(=O)c3ccc(Cl)cc3)c3ccc(OC)cc23)CC1", "pKa": 7.07}
{"item-smiles": "COc1ccc2c(c1)c(CC(=O)N1CCN(CC(C)=O)CC1)c(C)n2C(=O)c1ccc(Cl)cc1", "pKa": 5.35}
{"item-smiles": "Cc1sc2c(c1C)C(c1ccc(Cl)cc1)=N[C@@H](CC(=O)N1CCN(C)CC1)c1nnc(C)n1-2", "pKa": 7.14}
{"item-smiles": "CCOC(=O)CN1CCN(C(=O)Cc2c(C)n(C(=O)c3ccc(Cl)cc3)c3ccc(OC)cc23)CC1", "pKa": 4.5}
{"item-smiles": "COc1ccc2c(c1)c(CC(=O)N1CCN(C)CC1)c(C)n2C(=O)c1ccc(Cl)cc1", "pKa": 6.93}

###

Assay: physchem
Settings: Experimental pKa, common substituted piperazines; mean ± SD of 3 experiments
readout: pKa

{"compound": "CC(=O)N1CCNCC1 [1-Acetyl-piperazine, reference compound]", "result-value": 8.05}
{"compound": "CN1CCNCC1 [1-Methylpiperazine, reference compound]", "result-value": 9.16}
{"compound": "CC(=O)N1CCN(C)CC1 [1-Acetyl-4-methylpiperazine, reference compound]", "result-value": 7.06}
{"compound": "CCN1CCNCC1 [1-Ethylpiperazine, reference compound]", "result-value": 5.04}

###

Details: PROTAC precursors
readout: % protonation state at pH = 7.5, P: single protonation state

{"item-smiles": "COc1ccc2c(c1)c(CC(=O)N1CCN(CCC(C)=O)CC1)c(C)n2C(=O)c1ccc(Cl)cc1", "result-value": "P: 2.93%"}
{"item-smiles": "O=C(c1cc(Cc2n[nH]c(=O)c3ccccc23)ccc1F)N1CCN(Cc2ccccc2)CC1", "result-value": "P: 2.93%"}
